System: PPARg homodimer (NR concentration 180 nM)
Assay Procedure: PBM binding z-score (relative to random genomic background probes); higher = stronger binding; sequences stand for … in GC…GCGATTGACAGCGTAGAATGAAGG
Experimental Endpoint: PBM binding z-score

Look up PBM binding z-score for the entries below, preserving their order.
1. CCTGCTAGGTCATGGTCAGCTTATCTACAGTATG
2. TCTTGTAGATCAAGCAGGTTAAGACAGCCTGAGT
3. GGAACGAGGGCATTCGTGTTGATAGCATGGCGAT
4. TCGATTAGGTTACCAATGGGGCATTCAGCTTTCT
5. AGAACGAGGGCAGTGAGTTGATAGCACGGGTGGC
6. CGAACGAGGGCATGAGTTGATAGGAAATGCCGAT

[out]
1.32
-0.449
0.242
0.366
-0.315
0.547

Please supply PBM binding z-score for each of the following items, keeping them in order.
1. TCATATAGGTAATACAGGTGCAAGTCGGCATCTA
2. AGAATGATGTTACCAAAGATCAGGGAAACGCTTG
3. CGTCAAAGTTCAATTAAGGTAACGTAAAGCACGC
4. GCTAGTTGGTCAGTAAAAGGTAACACACCGGTCG

[out]
1: 0.337; 2: -0.153; 3: 3.06; 4: 0.535

Parameter requested: PBM binding z-score. Apply to each item below.
1. TCATATAGGTCAACAGGTGAAAGTCCGTAAGTTA
2. ATATGTAGGTTAGCAGGGGTCATTCAGACTAGGC

[out]
3.88
4.78

* * *

System: RXRa DBDmut IVT, anti-RXR (DBD mutation: RXRa K156A/R161A, NR concentration 90 nM)
Assay Procedure: PBM binding z-score (relative to random genomic background probes); higher = stronger binding; sequences stand for … in GC…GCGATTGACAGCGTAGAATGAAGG
What PBM binding z-score was measured for each of the following?

Check out these entries, answers already filled in.
GGAACGAGGGCATGTTGATAGCAGAGTTTGATGG :: 2.25
ATCTCTAAGTAACCAAGTTCAGTGAATGCCGAAC :: 1.2
GCAGACAGGTGAAACGCAGGTAACTCGGGGTGGC :: -0.847
GCTAGTTGGTCAGTAAACGGTCACACACCGGTCG :: -0.0327
CCTTACAGGTCACTCCAGGTTATAGCATCGGAGT :: 2.2

For each entry beneath this line, provide reported PBM binding z-score.
1. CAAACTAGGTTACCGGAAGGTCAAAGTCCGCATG
2. ACTAGCAGGCCAAGGGTCGCTCAAGATTAGTCCG
3. TCTTGTAGATCTATAGAGGTTAAGAAAGTGCGCT
4. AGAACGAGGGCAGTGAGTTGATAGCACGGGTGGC
5. GCGACTGGGGCATCAGCAGGTTACCGTAACTTAA
6. TGTCAAAGTTCAAAGGTAAGGTAAGTATCCACAC
7. CAAACTATGTCAAGGTCAAAGTCGGTTTGTGCCA
8. TCTCGGAGGACACGAAGGTCACAGCTTTCCAGAG

[out]
1: 0.838; 2: -0.27; 3: 0.575; 4: 1.24; 5: -0.433; 6: 4.48; 7: 2.54; 8: 1.47

* * *

Test system: RXRa DBDmut IVT, anti-RXR (DBD mutation: RXRa K156A/R161A, NR concentration 90 nM)
Assay Procedure: PBM binding z-score (relative to random genomic background probes); higher = stronger binding; sequences stand for … in GC…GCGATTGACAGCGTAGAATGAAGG
Experimental Endpoint: PBM binding z-score

Answered examples (5):
TCATATAGGTAAATCCTAGGTGAAAGTCCGATCT :: 1.37
AATACAGTGTCATCGTAGGCCAGAGTACGCACAG :: 0.561
ACAGACAGGTGAGTGAAGGTAACTCAACTGGACG :: -0.368
ATATGTAGGTTATCGGGTCATTGAGTTTGCGCAT :: 1.94
TCATACAGGTAATACAGGTGAAAGTCGGCATCTA :: 1.65

Working through the 7 sequences below one at a time, give PBM binding z-score for each.
1. TAGCCTAGGTAAGATCGGGCCAGTATACGCTATA
2. ACTGGGAGGACAAAGGTCAGAGCTACGCCAGTGA
3. AATACAGGGTCATCGTAGTCCAGAGTACGCACAG
4. AATACAGTGTCACTAGGCCAGAGTAGGTACGAAT
5. CTCGAAAGGTCGTGCTCAGGTCAGTATACCAAAC
6. CCTATTAGTTGACCATAAGGGCAACCTAAGCTCG
7. ACTAGCAGGCCAAGTTTGGGTCACTCCAACAAAG

[out]
1: -1.17; 2: 1.06; 3: 3.42; 4: 0.0246; 5: 2.37; 6: 0.437; 7: 0.0144

* * *

System: PPARg:RXRa 270nM:90nM, anti-RXR (NR concentration 270 nM, RXRa partner concentration 90 nM)
Assay Procedure: PBM binding z-score (relative to random genomic background probes); higher = stronger binding; sequences stand for … in GC…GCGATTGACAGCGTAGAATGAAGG
Experimental Endpoint: PBM binding z-score
Numbers only.

ATACCAAGGTGATCGTGAGGTCGTGGATACTAAC :: 0.784

Your task in this section: give PBM binding z-score for each listed record.
1. GGAACGTGGGCATTCGAGTTGATAGCATGGCGAT
2. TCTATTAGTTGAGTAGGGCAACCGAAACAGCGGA
3. CCTATGAGTTGACCATAAGGGCAACCGAAGCTCG
4. ACTATTACTTGAGACGAGGGCAACCGATAGGTTG

[out]
[-0.631, 1.65, 0.342, 0.46]

* * *

System: PPARg DBDmut IVT, anti-PPARg (DBD mutation: PPARg1 K132A/R137A, NR concentration 270 nM)
Assay Procedure: PBM binding z-score (relative to random genomic background probes); higher = stronger binding; sequences stand for … in GC…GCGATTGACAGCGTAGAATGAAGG
Experimental Endpoint: PBM binding z-score
Give bare numbers.

CCAGACAGGTGAGAAGCTAACTCAGCCTCGATTA :: -1.08

Hi! Can you tell me PBM binding z-score for each of these sequences?
1. CCTACTAGGCCAAAAAGGTCATTGATGCCGATAA
2. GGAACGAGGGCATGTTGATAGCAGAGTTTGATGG
3. TCTTATAGGTAAACAGGTGAAAGTCCGTAAGTTA

[out]
[-0.187, -0.313, 1.34]

For every record below, what is its PBM binding z-score?
1. AGTAGCAGGCCAAGTTTGGGTCACTCAAACAAAG
2. ATCTCTAGGTAACTAGTTCAGTGAAAGAGAGGAC
3. ACTATTAGTTGAGACGAGGGCAACCGTTAGGTTG
4. TATAGTTGGTCACGGAGGTCACACACGACGGGTA
5. TCTCAAAGTTCAAAGGTAACGTAAGTATCCACAC
6. TCTTGTAGATCAATCGAGGTTAAGAAAGTGCGCT
7. TCGAGAAGGTTACCAATGGGGCATTCAGCTTTCT
8. ATCGAAAGGTCGACGAGGTCAGTATACACCGTTT

[out]
-1.36
0.893
0.173
2.08
1.45
0.595
-0.173
0.928

* * *

Test system: FXR:RXRa (NR concentration 270 nM, RXRa partner concentration 90 nM)
Assay Procedure: PBM binding z-score (relative to random genomic background probes); higher = stronger binding; sequences stand for … in GC…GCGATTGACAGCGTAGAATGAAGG
Experimental Endpoint: PBM binding z-score

Field: example entries. Status: answers known.
CGCACTAGGTCAAGGACAGTGAATCTCCGCACGC :: 3.09
ATCTCTAGGTAACAAGTACAGTGAAAGAGAGGAC :: 0.404
AGTCAAAGTTCACTAGCTAACGTAAGATTCAGCT :: 4.87
ATCTATAGGTAAAAGTTCAGTGAATCCCGAGGAT :: 0.696
CCTACTGGGCCCTCAGGTCATTGATATCAACGTT :: 0.913
TCTCGGAGGGCACGAAAGGTCAGAGCTCGACATC :: 4.52

Give measured PBM binding z-score for every item shown.
1. CGTCCAAGGTCAGCAGGTCAGTAAAAGCGACGTG
2. AGACTGAGGTTATACGTAGATCAGGGAAGAAAGT
3. GGAATGAGGGCAAGTTGATAGCAGAGTTTGATGG
4. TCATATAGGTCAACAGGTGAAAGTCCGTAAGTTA
5. ACTATTAGTTGAGACGAGGGCAAGCGATAGGTTG

[out]
1: 5.97; 2: 1.99; 3: 1.28; 4: 6.45; 5: 0.338

// each listed sequence needs a value for PBM binding z-score
1. TCTAGTGGGTCACGGAGGTCACACACGACGGGTA
2. CTCGAAAGGTCGGTTGAGGAGAGTATACGGATAA

[out]
1: 6.17; 2: 1.93

Batch lookup, PBM binding z-score per entry.
1. CGAACGAGGGCATGAGTTGATAGTAAATGCCGAT
2. AGAATGAGGTTATTAAGGTCAGGGAATTGCGGTC
3. TCATATAGGTAAAGGTGATAGTCGAACGATATGA
4. CAAACTAGGGCAAGAGGTCAAAGTCCGCTTCCCG
5. CGAACTAGATCAGAACAGGACAGTGAAGGATGAT
6. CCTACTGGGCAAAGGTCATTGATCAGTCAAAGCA
7. TCGCCTAGGTCATTCAGGGGCCAGTATAGAAAGC

[out]
1: 0.719; 2: 4.55; 3: 0.212; 4: 5.03; 5: -0.267; 6: 4.96; 7: 4.82

Provide PBM binding z-score for all items below, preserving their order.
1. GCGACAGGGGCAAAGCAGGTTACCATAAGGTTGG
2. ATCTCTAGGTAACCAAGTTAAGTGAATGCCGAAC
3. GCTTACGGGTCAAAGGTTATAGCGTGAATAGAAT
4. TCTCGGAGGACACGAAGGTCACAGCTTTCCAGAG
5. AGAATGAGGTTGAGATCAGGGAAACAGAATACAT
6. GGAACGAGGGCAAGTTGATAGCCGAGTTTGATGG

[out]
1: 0.475; 2: 0.211; 3: 7.45; 4: 2.69; 5: 0.277; 6: 0.943
